PROPERTY NAME: melting point

>  <COMPOUND>
CONC(=O)c1ccccc1NC(=O)Cc1cccc(Br)c1

>  <REPORTED MEASUREMENT>
166 °C

$$$$
>  <COMPOUND>
CC(C)c1cc(C(=O)Nc2cc(F)c(C(=O)O)c(F)c2)sc1C(C)C

>  <REPORTED MEASUREMENT>
218 to 219 °C

$$$$
>  <COMPOUND>
CCNS(=O)(=O)c1ccc(C(O)c2ccc3c(c2)C(C)(C)CCC3(C)C)cc1 (stereo not drawn)

>  <REPORTED MEASUREMENT>
175 °C

$$$$
>  <COMPOUND>
O=[N+]([O-])OCCNC(=S)Cc1ccccc1

>  <REPORTED MEASUREMENT>
63 to 65 °C

$$$$
>  <COMPOUND>
COc1ccc(-c2cc(=O)n(Cc3ccccc3)nc2-c2ccc(OC)cc2)cc1

>  <REPORTED MEASUREMENT>
145 to 146 °C

$$$$
>  <COMPOUND>
CC(C)(O)CC1CN=C(c2cc3cc(Oc4ccc(S(C)(=O)=O)cn4)cc(OC4CCOCC4)c3[nH]2)S1 (stereo not drawn)

>  <REPORTED MEASUREMENT>
129 to 130 °C

$$$$
>  <COMPOUND>
COc1cc2c(Nc3ccc(Sc4nccn4C)c(Cl)c3)c(C#N)cnc2cc1F

>  <REPORTED MEASUREMENT>
295 to 297 °C

$$$$
>  <COMPOUND>
C=CCN1CC(=O)N2CCC[C@H]2C1=O

>  <REPORTED MEASUREMENT>
106 to 109 °C

$$$$

---

melting point values, listed per item
PROPERTY NAME: melting point

>  <MOLECULE>
COc1ccc(S(=O)(=O)Nc2c(C)c(C)c3c(c2C)C(c2ccc(C(C)C)cc2)C(C)(C)O3)cc1 (stereo not given)

>  <REPORTED MEASUREMENT>
206 to 208 °C

$$$$
>  <MOLECULE>
CC1(C)OC(=O)Nc2ccc(-c3cccc(C#N)c3)cc21

>  <REPORTED MEASUREMENT>
236 to 237 °C

$$$$
>  <MOLECULE>
CC12CCC(=O)C=C1CCC1C2=CCC2(C)C1CCC2(OC=O)C(=O)CCl (stereo not given)

>  <REPORTED MEASUREMENT>
203 °C

$$$$
>  <MOLECULE>
O=C(NCCCCCCOC(=O)Oc1ccc([N+](=O)[O-])cc1)OC1CCN(C(=O)OCc2ccccc2)CC1

>  <REPORTED MEASUREMENT>
78 to 80 °C

$$$$
>  <MOLECULE>
CC(C)c1ccc(C(=O)O)c(C2=NC(=O)C(C)(C(C)C)N2)n1 (stereo not given)

>  <REPORTED MEASUREMENT>
131 to 134 °C

$$$$
>  <MOLECULE>
CC(C)N1CCC(n2cc(C3=C(c4cn(C)c5ccccc45)C(=O)NC3=O)c3ccccc32)CC1

>  <REPORTED MEASUREMENT>
> 250 °C

$$$$
>  <MOLECULE>
O=C(Nc1ccc(C(F)(F)F)cc1)Nc1cccc(C(=O)N2CCOCC2)n1

>  <REPORTED MEASUREMENT>
208 to 210 °C

$$$$
>  <MOLECULE>
CN(C(=O)Cn1c(-c2ccc(Cl)cc2)nc2cccnc21)c1ccccc1

>  <REPORTED MEASUREMENT>
170 to 171 °C

$$$$
>  <MOLECULE>
O=C1OC(CCl)CN1c1ccc(Cl)cc1 (stereo not given)

>  <REPORTED MEASUREMENT>
119 to 120 °C

$$$$
>  <MOLECULE>
CCOC(=O)c1c[nH]c2c(C#N)c(CCCNC)nn2c1=O

>  <REPORTED MEASUREMENT>
285 to 287 °C

$$$$

---

melting point values, listed per item

>  <COMPOUND>
CCOC(C)c1cc2c(=O)n(NS(C)(=O)=O)c(=O)[nH]c2cc1C(F)(F)F (configuration not stated)

>  <melting point>
105 to 112 °C

$$$$
>  <COMPOUND>
CNC(=O)C1SCOC(=NO)S1 (configuration not stated)

>  <melting point>
99 to 102 °C

$$$$
>  <COMPOUND>
N#Cc1cc(-n2nnnc2C(F)(F)F)ccc1OC(F)(F)F

>  <melting point>
65 to 67 °C

$$$$
>  <COMPOUND>
COc1ccc(-c2ccc(C)nc2-c2ccc(OCCN3CCCC3)cc2)cc1

>  <melting point>
63 to 64 °C

$$$$
>  <COMPOUND>
COc1ccnc(CCc2nc3cc(-c4ccc(S(=O)(=O)N(C)C)cc4)cnc3[nH]2)c1

>  <melting point>
217 to 218 °C

$$$$
>  <COMPOUND>
CCn1cc(C(=O)O)c(=O)c2cc(F)c(N3CC4CCC3CN4)nc21 (configuration not stated)

>  <melting point>
250 to 253 °C

$$$$
>  <COMPOUND>
CCc1ccc(N)c(C(=O)c2ccccc2)c1

>  <melting point>
57 to 59 °C

$$$$

---

melting point values, listed per item

>  <COMPOUND>
Cc1cc(C(c2ccc(C(c3ccc(O)c(C)c3)c3ccc(O)c(C)c3)cc2)c2ccc(O)c(C)c2)ccc1O

>  <melting point>
195 °C

$$$$
>  <COMPOUND>
CC(C)(C)C1c2ccccc2CCC1O (stereo not drawn)

>  <melting point>
104 °C

$$$$
>  <COMPOUND>
Cc1nc(Nc2nc3ccc([N+](=O)[O-])cc3[nH]2)nc(O)c1CC(=O)O

>  <melting point>
> 300 °C

$$$$
>  <COMPOUND>
C#CCn1ccc(C(=O)OC)c1C=NO

>  <melting point>
88 to 90 °C

$$$$
>  <COMPOUND>
CC(C(=O)N(C)C)n1nc(-c2ccccc2)c2c1CCCC2 (stereo not drawn)

>  <melting point>
101 to 103 °C

$$$$
>  <COMPOUND>
COCCc1nc2c(N)nc3ccccc3c2n1CC1(O)CCCCC1

>  <melting point>
189 to 191 °C

$$$$
>  <COMPOUND>
Cc1cc(CC(=O)O)cc2c1NC(C(F)(F)F)CC2 (stereo not drawn)

>  <melting point>
135 to 136 °C

$$$$
>  <COMPOUND>
C=CCOc1ccccc1N(CC(O)CNC(C)C)S(C)(=O)=O (stereo not drawn)

>  <melting point>
139 to 141 °C

$$$$
>  <COMPOUND>
CC1=NN(C)C(=O)C1(Cl)C(Cl)c1ccc(Cl)cc1Cl (stereo not drawn)

>  <melting point>
113 to 115 °C

$$$$
>  <COMPOUND>
CC(CO)(CO)NS(=O)(=O)c1cccc([N+](=O)[O-])c1

>  <melting point>
116 °C

$$$$
>  <COMPOUND>
CC(COc1ccc(-c2ccc(C#N)cc2)cc1)N(O)C=O (stereo not drawn)

>  <melting point>
141 to 144 °C

$$$$
>  <COMPOUND>
CC1(C)CC(Oc2ccc(O)nn2)c2cc(C#N)ccc2O1 (stereo not drawn)

>  <melting point>
221 to 224 °C

$$$$
>  <COMPOUND>
O=C(N1CCC(O)(c2ccccc2)CC1)C(F)(F)F

>  <melting point>
123 to 125 °C

$$$$
>  <COMPOUND>
CCCCCCCCCCCCNC(=O)n1nc(Oc2ncc(C(F)(F)F)cc2Cl)c(Cl)c1C

>  <melting point>
68 to 70 °C

$$$$
>  <COMPOUND>
C[Si](C)(C)c1cccc(I)c1C(=O)NC1CC1

>  <melting point>
162 to 164 °C

$$$$
>  <COMPOUND>
CC(C(=O)O)(c1ccccc1)c1ccc(O)cc1 (stereo not drawn)

>  <melting point>
136 to 137 °C

$$$$
>  <COMPOUND>
O=c1[nH]c2ccc(N3CCN(Cc4ccccc4)CC3)cc2c(=O)o1

>  <melting point>
235 °C

$$$$
>  <COMPOUND>
CS[C@@H]1CC[C@H](C(=O)O)Cc2onc(-c3ccc(Cl)cc3)c21 (relative stereo)

>  <melting point>
241 to 242 °C

$$$$

---

>  <COMPOUND>
CC1CC(=O)C=C2C=CC3C4CCC(=O)C4(C)CCC3C21C (stereo not drawn)

>  <ENDPOINT UNIT>
°C

>  <melting point>
171

$$$$
>  <COMPOUND>
CC1(C)OCC(COc2cc(O)nc(N)n2)O1 (stereo not drawn)

>  <ENDPOINT UNIT>
°C

>  <melting point>
258

$$$$

---

melting point values, listed per item

>  <COMPOUND>
COc1ccccc1Nc1ncc2cc(-c3c(Cl)cccc3Cl)c(=O)n(C)c2n1

>  <melting point>
200 to 201 °C

$$$$
>  <COMPOUND>
CCOc1cc(Oc2ccc(S(C)(=O)=O)nc2)cc2cc(C3=NCC(CC(=O)O)S3)[nH]c12 (stereo not given)

>  <melting point>
208 to 210 °C

$$$$
>  <COMPOUND>
CC(=O)NC(=O)CSC(=O)Cc1ccccc1

>  <melting point>
123 to 124 °C

$$$$
>  <COMPOUND>
CNc1nc(C)c(C(=O)c2ccc(N)c([N+](=O)[O-])c2)s1

>  <melting point>
260 to 261 °C

$$$$
>  <COMPOUND>
c1ccc(CCOCCOc2ccc(OCc3ccccc3)cc2)cc1

>  <melting point>
46 to 49 °C

$$$$
>  <COMPOUND>
CCCCc1nc2c(C)cnc(C(=O)O)c2n1Cc1ccc(-c2ccccc2-c2nnn[nH]2)cc1

>  <melting point>
159 to 161 °C

$$$$
>  <COMPOUND>
O=C(Nc1ccc(Oc2ccnc(NCC3CCCO3)n2)c2ccccc12)c1cc(F)cc(N2CCOCC2)c1 (stereo not given)

>  <melting point>
103 to 105 °C

$$$$
>  <COMPOUND>
O=[N+]([O-])C=C1SCCCN1Cc1cccnc1

>  <melting point>
143 to 146 °C

$$$$
>  <COMPOUND>
CCCc1c(OCC(O)CS(=O)(=O)c2ccc(CC(=O)OC)c(F)c2)ccc(C(C)=O)c1O (stereo not given)

>  <melting point>
118 to 119 °C

$$$$
>  <COMPOUND>
O=C1c2ccc(N3CCCC3)c3cc([N+](=O)[O-])cc(c23)C(=O)N1O

>  <melting point>
290 to 291 °C

$$$$
